Target: T1, soluble human EREG fragment (EGF domain; 63Val to 108Leu) comprising a mature structure, R&D Systems cat. no. … (human, UniProt O14944 63-108)
T1 construct: Bought protein; also called soluble EREG; recombinant human EREG
T1 sequence (O14944 63-108): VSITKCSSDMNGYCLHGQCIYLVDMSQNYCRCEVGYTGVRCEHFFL
Assay: ELISA, EREG fragment immobilized on immuno plate
measured.attribute: binding result

binder | measured.attribute | result
anti-EREG mouse monoclonal antibody EP20 (B2#30) (antibody, mouse IgG1, V domains shown, Mouse IgG1/κ hybridoma antibody) VH: QVQLQQSGAELVRPGVSVKISCKGSGYTFTVYSLHWVKQSHARSLEWIGVISTYYGDAIYNQKFKGKATMTVDKSSSTAYMELARLTSEDSAIYYCAREGNGNPLDYWGQGTTLTVSS VL: QIVLTQSPAIMSASLGERVTMTCTASSSVSSSYLHWYQQKPGSSPKLWIYSTSNLASGVPARFSGSGSGTSYSLTITNMEAEDSATYYCHQYHRSPLTFGAGTKLELK | binding result | binds
anti-EREG mouse monoclonal antibody EP03 (C7) (antibody, mouse IgG1, V domains shown, Mouse IgG1/κ hybridoma antibody) VH: QVQLQQPGAELVKPGASVKLSCKASGYTFTNYWMNWVKQRPGRGLEWIGRIHPSDSETHYNQKFKNKATLTVDKSSSTAYIQLSSLTSEDSAVYYCANLYYYTMDYWGQGTSVTVSS VL: DIQMTQSPSSLSASLGGKVTITCKASQDINKNIAWHQHKPGKGPRLLIWYTSTLQPGIPSRFSGSGSGRDYSFSISNLEPEDIATYYCLQYDNLPYTFGSGTKLEIK | binding result | binds
anti-EREG mouse monoclonal antibody EP08 (#15) (antibody, mouse IgG1, V domains shown, Mouse IgG1/κ hybridoma antibody) VH: QVQLQQPGAELVKPGASVKLSCKASGYTFTSYWMHWVKQRPGQGLEWIGEINPYNGGTNYNEKFKSKATLTVDKSSSTAYMQLSSLTSEDSAVYYCTIWKLGTYWGQGTLVTVSA VL: DIQMTQSPSSLSASLGERVSLTCRASQEISGYLSWLQQKPDGTIKRLIYAASTLDSGVPKRFSGSRSGSDYSLTISSLESEDFADYYCLQYASYPRTFGGGTKLEIK | binding result | binds
